System: COLO 205 colon
Experiment: NCI tumour cell line growth inhibition, 48 h
Entries and their log10(TGI)
parameter: log10(TGI) (log10 of the value in µM)

- compound: "Cc1ccc2c(=O)cc(-c3sc4ccccc4c3C)[nH]c2n1"
  log10(TGI): 1.82
- compound: "CCOP(=O)(OCC)/C(C#N)=C/c1ccnc2ccccc12"
  log10(TGI): 1.58
- compound: "Cc1cccc(C(C)(C)C)c1NC(=O)CC1Sc2ccccc2NC1=O (configuration not stated)"
  log10(TGI): 1.78
- compound: "O=C1CC(c2ccc(Cl)cc2)Oc2ccccc21 (configuration not stated)"
  log10(TGI): 1.95
- compound: "N#Cc1cc(S(=O)(=O)Nc2nc3ccccc3s2)c(SCc2ccccc2)cc1Cl"
  log10(TGI): 1.95
- compound: "CN(/N=N/c1nc(OCc2ccccc2)c2[nH]cnc2n1)C(=O)Oc1ccc([N+](=O)[O-])cc1"
  log10(TGI): 1.47
- compound: "C=CCCCc1ccc(C(O)CCCCCCCCCCCC)o1 (configuration not stated)"
  log10(TGI): 1.59
- compound: "CCN(CC)CCOc1ccc(C(=O)/C=C\\c2ccc(Cl)cc2Cl)cc1"
  log10(TGI): 0.71
- compound: "CC1=C(C(=O)OC(C)C)C(c2ccccc2C(F)(F)F)C(C(=O)OC(CO[N+](=O)[O-])CO[N+](=O)[O-])=C(C)N1 (configuration not stated)"
  log10(TGI): 1.80

* * *

Test system: MDA-MB-231 breast
Outcomes: active, inactive

- chemical.string: "COc1cc(Cl)cc(-c2nn(-c3cccc(NC(=O)Nc4ccc(Cl)c(C(F)(F)F)c4)c3)cc2-c2ccncc2)c1"
  label.value: "inactive"
- chemical.string: "CN(/N=N/c1nc(OCc2ccccc2)c2[nH]cnc2n1)C(=O)Oc1ccc([N+](=O)[O-])cc1"
  label.value: "inactive"
- chemical.string: "COc1ccc(Nc2c3ccccc3nc3[nH]c4ccccc4c23)cc1"
  label.value: "inactive"
- chemical.string: "CO[C@H]1CC(c2ccc[nH]2)=N[C@]12O[C@@H](C)C[C@@H]1CCCCCCCc3ccc([nH]3)[C@H]12"
  label.value: "inactive"
- chemical.string: "O=C(Nc1ccc(I)cc1F)c1cc(Cl)ccc1O"
  label.value: "active"
- chemical.string: "[Cl][Cd][Cl]"
  label.value: "inactive"
- chemical.string: "COc1ccc2nc(NC(=O)c3cccnc3Nc3cc(OC)c(OC)c(OC)c3)sc2c1"
  label.value: "inactive"
- chemical.string: "CC(C)COC(=O)c1ccc2[nH]c(O)c(C=Nc3ccc(S(N)(=O)=O)cc3)c2c1"
  label.value: "inactive"
- chemical.string: "CC(C)CCN[C@@H]1CCc2cc(O)c(N3CC(=O)NS3(=O)=O)c(F)c2C1"
  label.value: "inactive"
- chemical.string: "ClCc1ccc(Cn2cnc3c(Cl)nc(Cl)nc32)cc1"
  label.value: "inactive"

* * *

Lab note: GI50 readings collected with EKVX NSCLC for the following molecules.
parameter: GI50

- molecule: "CCCNc1nc2ccccc2c2c1S(=O)(=O)c1ccc(Cl)cc1C2=O"
  parameter: "GI50"
  observed.result: "1.38 µM"
- molecule: "C=C1c2c(Cl)ccc(O)c2C(O)=C2C(=O)[C@]3(O)C(O)=C(C(N)=O)C(=O)[C@@H](N(C)C)[C@@H]3[C@@H](O)[C@H]12"
  parameter: "GI50"
  observed.result: "1.51 µM"
- molecule: "N#Cc1cc(S(=O)(=O)Nc2nc3ccccc3s2)c(SCc2ccccc2)cc1Cl"
  parameter: "GI50"
  observed.result: "17.1 µM"
- molecule: "C=CCCCc1ccc(C(O)CCCCCCCCCCCC)o1 (configuration not stated)"
  parameter: "GI50"
  observed.result: "20.1 µM"
- molecule: "ClCc1ccc(Cn2cnc3c(Cl)nc(Cl)nc32)cc1"
  parameter: "GI50"
  observed.result: "17.3 µM"
- molecule: "CN(C)CCN1C(=O)c2cccc3cccc(c23)C1=O"
  parameter: "GI50"
  observed.result: "> 25 µM"
- molecule: "Cn1cnc([N+](=O)[O-])c1Sc1ncn[nH]1"
  parameter: "GI50"
  observed.result: "> 100 µM"
